Items are presented alongside their recorded IC50.
target: amino peptidase (Rattus norvegicus); construct: as enzyme source it has been used the soluble fraction of point (a) above; from tissue; host or cells: rat striatum, soluble fraction; assay: Inhibition of amino peptidase, soluble fraction of rat striata, 3H-Tyr-Leucine-Enkephalin substrate; type: biochemical, rats; conditions: read-out: Drug concentration which inhibits 50% of the enzymatic activities (IC50(M)), Amino Peptidase
Sequence (F1M9V7 1-920): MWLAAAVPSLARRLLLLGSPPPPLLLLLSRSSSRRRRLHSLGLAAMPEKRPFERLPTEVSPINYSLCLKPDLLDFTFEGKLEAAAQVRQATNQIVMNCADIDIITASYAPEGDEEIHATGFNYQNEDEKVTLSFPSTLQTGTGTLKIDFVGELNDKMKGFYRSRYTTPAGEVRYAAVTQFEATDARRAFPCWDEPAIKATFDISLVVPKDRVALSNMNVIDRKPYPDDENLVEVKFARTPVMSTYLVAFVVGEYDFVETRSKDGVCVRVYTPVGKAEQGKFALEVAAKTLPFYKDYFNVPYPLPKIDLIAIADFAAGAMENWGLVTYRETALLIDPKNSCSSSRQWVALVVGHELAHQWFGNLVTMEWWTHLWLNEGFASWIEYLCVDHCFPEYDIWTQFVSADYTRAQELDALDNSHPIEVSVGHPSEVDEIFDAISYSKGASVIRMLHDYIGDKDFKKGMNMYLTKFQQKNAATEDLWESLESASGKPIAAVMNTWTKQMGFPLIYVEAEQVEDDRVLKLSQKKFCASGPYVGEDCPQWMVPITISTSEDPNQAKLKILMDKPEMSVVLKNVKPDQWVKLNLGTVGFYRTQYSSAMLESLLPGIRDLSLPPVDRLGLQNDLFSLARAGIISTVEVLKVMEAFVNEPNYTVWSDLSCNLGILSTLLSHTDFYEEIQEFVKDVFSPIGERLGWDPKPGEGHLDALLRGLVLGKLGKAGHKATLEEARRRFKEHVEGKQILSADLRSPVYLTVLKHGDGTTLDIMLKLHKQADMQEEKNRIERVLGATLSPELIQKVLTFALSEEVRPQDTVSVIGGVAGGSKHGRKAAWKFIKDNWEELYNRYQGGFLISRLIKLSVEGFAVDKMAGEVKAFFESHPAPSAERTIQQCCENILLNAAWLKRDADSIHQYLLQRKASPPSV

[ask] Give its IC50 value. Item: CC(C)C[C@H](NC(=O)[C@@H](O)[C@H](N)Cc1ccccc1)C(=O)O [Bestatin, reference compound]
[reply] 2e-07 M

[ask] Please do the same for C[C@H](CSC(=O)c1ccccc1)C(=O)Nc1cncc(C(=O)O)c1 [Example 18a] as well.
[reply] > 1e-06 M

[ask] Please do the same for COC(=O)c1cncc(N(C)C(=O)C(C)CSC(C)=O)c1 (stereo not drawn) as well.
[reply] > 1e-06 M

[ask] Please do the same for CC(CS)C(=O)N(C)c1cncc(C(=O)O)c1 (stereo not drawn) as well.
[reply] > 1e-06 M

[ask] Please do the same for CC(CS)C(=O)Nc1cncc(C(=O)O)c1 (stereo not drawn) as well.
[reply] > 1e-06 M

---
[ask] Give its IC50 value. Item: CC(CS)C(=O)Nc1cc(C(=O)O)ccn1 (stereo not drawn)
[reply] > 1e-06 M
